Tested on: GB4
Assay: qHTS profiling for inhibitors of Plasmodium falciparum proliferation (AID 504749); also: nearly all actives have a fitted effect of over 60% in size
Conditions: P. falciparum in erythrocytes, SYBR Green DNA, 72 h; series mostly up to 28.7 µM
Inconclusive results are not listed. Activity calls are given as the source filed them. Calls follow the shape of the dose curve; as a rule, active = well fitted inhibition curve with a large enough effect; inconclusive = small, poorly fitted or top-dose-only effect; inactive = flat fitted curve, though single readings scatter.
Use one of these outcomes when replying: yes (1) = active, no (0) = inactive

CC(C)(C#N)c1cc(Cn2cncn2)cc(C(C)(C)C#N)c1 :: no (0)

Per the assay record, what outcome was assigned to CCc1c2c(nc3ccc(OC(=O)N4CCC(N5CCCCC5)CC4)cc13)-c1cc3c(c(=O)n1C2)COC(=O)[C@]3(O)CC ? no (0)

Try this molecule too: CN1CCN(c2c(F)cc3c(=O)c(C(=O)O)cn(CCF)c3c2F)CC1 no (0)

Moving on to the next molecule: N=C(N)c1ccc(OCCCCCOc2ccc(C(=N)N)cc2)cc1 yes (1)

Also, CNC(=O)c1cc(Oc2ccc(NC(=O)Nc3ccc(Cl)c(C(F)(F)F)c3)cc2)ccn1 please. yes (1)
